B1: TRIM63 (parent)
chain: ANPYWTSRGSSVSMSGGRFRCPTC

Variants of: B1
Test: protein stability index of a GFP-peptide fusion (GPS, HEK-293T) (PSI 1-6); higher = more stable;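 further: lentivirally expressed fusions sorted by FACS into six bins by GFP to DsRed ratio, PSI derived from sequencing read proportions per bin multiplied by bin number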
Conditions: c terminus: a fixed tail appended
Recorded protein stability index, one value per entry.
Give your answer as a number; write no unit.

In [3]: df
Out[3]:
   variant_spec                 quantity  observed
0           P3E  protein stability index      1.91
1          S13E  protein stability index      2.98
2           T6S  protein stability index      1.45
3          M14G  protein stability index      1.83
4           R8V  protein stability index      1.95
5           G9W  protein stability index      1.43
6          S15T  protein stability index      1.43
7          G17H  protein stability index      1.53
8          S13H  protein stability index       1.9
9           A1Q  protein stability index      1.49

Now let's try a different one.
Q: What protein stability index value was documented for this variant, S15H ?
A: 1.87
